Attribution: ChEMBL document CHEMBL1201862

# System: HCC 2998
# methodNotes: NCI tumour cell line growth inhibition, 48 h
Activity calls are given as the source filed them. Rule as the data show it: active = GI50 up to about 1.1 µM and inactive = higher.
Form field: GI50 (one value per entry).
measure: GI50

>>> assayvalue("Nc1nnc(N)n1NC(=O)C(=O)Nc1ccc([N+](=O)[O-])cc1")
"> 100 µM (inactive)"
>>> assayvalue("CC(C)c1ccc(C2C3=C(N=C4SCC(=O)N42)C(=O)c2ccccc23)cc1 (stereo unspecified)")
"> 100 µM (inactive)"
>>> assayvalue("Cc1cc2c(c(C)c1O)C(C)(C)CN2C(=O)C(C)(C)C")
"> 100 µM (inactive)"
>>> assayvalue("CNc1cc2oc(=O)cc(C)c2cc1C")
"> 100 µM (inactive)"
>>> assayvalue("COc1cc(OC)cc(-n2c(N)c(-c3nc4ccccc4s3)c3ccc([N+](=O)[O-])cc3c2=O)c1")
"84.5 µM (inactive)"
>>> assayvalue("N#C/C(=C\\c1cccc(O)c1O)C(N)=O")
"20.3 µM (inactive)"
>>> assayvalue("N#Cc1nc(Nc2ccc([N+](=O)[O-])cc2)sc1N")
"11.7 µM (inactive)"
>>> assayvalue("C/C(=C/c1ccccc1)CN(C(=O)/C=C\\Sc1ccccc1)C(C)(C)C")
"45.4 µM (inactive)"
>>> assayvalue("CCN(CC)CCN1C(=O)c2c(c(-c3ccccc3)c3ccccc3c2-c2ccccc2)C1=O")
"> 100 µM (inactive)"
>>> assayvalue("COC(=O)C1CC(C(=O)OC)c2nc3cc([N+](=O)[O-])ccc3nc21 (stereo unspecified)")
"30.5 µM (inactive)"
>>> assayvalue("O=C(Cc1ccccc1)NN1C(=O)C(Cl)C1c1cccc([N+](=O)[O-])c1 (stereo unspecified)")
"> 100 µM (inactive)"

* * *

# Tested on: MOLT-4
# methodNotes: NCI tumour cell line growth inhibition, 48 h
Activity calls are given as the source filed them. No stated cut-off is given here; in the data, active = GI50 up to about 1.1 µM and inactive = higher.
Possible outcomes: class 1 = active, class 0 = inactive

>>> classification("O=C(NCc1ccc(Cl)cc1)c1cc2sccc2nc1C(F)(F)F")
"class 0"
>>> classification("CC[C@@]1(O)C(=O)OCc2c1cc1n(c2=O)Cc2c-1nc1ccccc1c2/C=N\\NC(=O)C[n+]1ccccc1")
"class 1"
>>> classification("CCn1ncc2c1nc(-c1ccccc1)c[n+]2[O-]")
"class 0"
>>> classification("CC(=O)OCC(OC(C)=O)C1C[C@H]2O[C@@H]3[C@H](C[C@H]2O1)O[C@@]1(C[C@@H]3C)C[C@H](C)[C@@H]2O[C@]3(C[C@@H]2O1)C[C@H]1O[C@H]2[C@H](C)[C@H]4OC(=O)C[C@H]5CC[C@@H]6OC7[C@H]8O[C@]9(CC[C@H]%10CC(=O)[C@H](CC[C@H]%11C[C@@H](C)C(=O)C(C[C@@H]4O[C@H]2C[C@H]1O3)O%11)O%10)CC8O[C@@H]7[C@@H](O9)[C@H]6O5 (some centres not stated)")
"class 1"
>>> classification("COc1cc2c(cc1OC)-c1c(cnn1C1OC(COC(C)=O)C(OC(C)=O)C(OC(C)=O)C1OC(C)=O)CC2 (configuration not stated)")
"class 0"
>>> classification("O=c1[nH]c(=O)n(COCc2ccccc2)c2ccc(Br)cc12")
"class 0"
>>> classification("CCOP(=O)(/C=C\\n1cnc2c(=O)n(C(C)=O)c(N)nc21)OCC")
"class 0"
>>> classification("O=C1OC(c2ccccc2)=N/C1=C\\c1ccc(Cl)cc1")
"class 0"
>>> classification("O=C(O)CSc1nnc(Cc2ccccc2)[nH]1")
"class 0"
>>> classification("C=C1CC(Cn2ccc(=O)[nH]c2=O)(c2ccc(Cl)cc2)OC1=O (configuration not stated)")
"class 0"
>>> classification("COC12OCCN(C)C1=CC(=O)C1(C)N=NCC12 (configuration not stated)")
"class 0"
>>> classification("CC1=C(C(=O)OC(C)C)C(c2ccccc2C(F)(F)F)C(C(=O)OC(CO[N+](=O)[O-])CO[N+](=O)[O-])=C(C)N1 (configuration not stated)")
"class 0"
>>> classification("O=C1C(Cl)C(c2cc3cc(Br)ccc3nc2Cl)N1c1ccc(Cl)cc1 (configuration not stated)")
"class 0"
>>> classification("O=C(Nc1ccc(Cl)cc1)c1cc(S(=O)(=O)Nc2n[nH]c(Nc3ccc4ccccc4c3)n2)c(SSc2cc(Cl)c(C(=O)Nc3ccc(Cl)cc3)cc2S(=O)(=O)Nc2n[nH]c(Nc3ccc4ccccc4c3)n2)cc1Cl")
"class 0"
>>> classification("CCOc1cc(NC(C)=O)ccc1C(=O)NN1C(=O)C(Cl)C1c1ccco1 (configuration not stated)")
"class 0"
>>> classification("Nc1nc(NCC2(CO)CC2)cc(=O)[nH]1")
"class 0"
>>> classification("O=P1(N2CCOCC2)OCCO1")
"class 0"
